Target: recombinant human PAD4 (Homo sapiens (Human))
Assay: RFMS Human PAD4 Functional Assay 2
Details: RFMS assay 2; 35 nM recombinant human PAD4, 500 μM TSTGGRQGSHH peptide, 2 mM CaCl2, room temperature 30 minutes; read-out: hPAD4 RFMS IC50
Method: RFMS Human PAD4 Functional Assay 2: Compound Preparation: • Stock compounds were dissolved and stored in 100% DMSO. Compound solutions were prepared via serial dilution at 3-fold intervals in DMSO with top compound concentration at 20 μM in each assay. 0.25 μl of compound solution was transferred from the compound plate to the assay plate by using an acoustic dispenser. […] MRM transitions for substrate and product were monitored in positive ESI mode at m/z=562.3/969.7 and m/z=562.8/541.3 respectively. […]
pIC50: −log10 of the molar value.
METRIC: pIC50

{"columns": ["SMILES RECORD", "READOUT NUMBER"],
 "data": [
  ["COc1cc(C(=O)N2C[C@H](N)C[C@@H](F)C2)cc2oc(-c3cc4cccc(OCc5ncno5)c4n3CC3CC3)c(CCO)c12", 6.61],
  ["COc1cc(C(=O)N2CCC[C@@H](N)C2)cc2sc(-c3cc4ccccc4n3CC3CC3)c(CCO)c12", 5.92],
  ["COc1cc(C(=O)N2C[C@H](N)C[C@@H](F)C2)cc2oc(-c3cc4cccc(OC)c4n3CC3CC3)c(CCO)c12", 6.49],
  ["COc1cc(C(=O)N2C[C@H](N)C[C@@H](F)C2)cc2oc(-c3cc4ccccc4n3CC3CC3)c(CCO)c12", 6.54],
  ["Cc1c(-c2cc3ccccc3n2CC2CC2)sc2cc(C(=O)N3CCC[C@@H](N)C3)cc(CCO)c12", 6.07],
  ["COc1ccc2cc(-c3sc4cc(C(=O)N5C[C@H](N)C[C@@H](F)C5)cc(OC)c4c3CCO)n(CC3CC3)c2c1", 6.42],
  ["CN[C@@H]1C[C@@H](F)CN(C(=O)c2cc(OC)c3c(CCO)c(-c4cc5ccccc5n4CC4CC4)oc3c2)C1", 5.12],
  ["COc1cc(C(=O)N2C[C@H](N)C[C@@H](F)C2)cc2oc(-c3cc4cccc(OCC5COC5)c4n3CC3CC3)c(CCO)c12", 6.53],
  ["COc1cc(C(=O)N2C[C@H](N)C[C@@H](F)C2)cc2sc(-c3cc4ccccc4n3CC3CC3)c(CCO)c12", 6.40],
  ["COc1cc(C(=O)N2C[C@H](N)C[C@@H](F)C2)cc2oc(-c3cc4cccc(OCC5CN(C)C5)c4n3CC3CC3)c(CCO)c12", 6.21],
  ["COc1cc(C(=O)N2C[C@H](N)C[C@@H](F)C2)cc2oc(-c3cc4cccnc4n3CC3CC3)c(CCO)c12", 6.11]
]}

----------
pIC50 values by entry
Biological target: human PAD4 (hPAD4) (Homo sapiens (Human), UniProt Q9UM07)
Sequence (Q9UM07 whole entry): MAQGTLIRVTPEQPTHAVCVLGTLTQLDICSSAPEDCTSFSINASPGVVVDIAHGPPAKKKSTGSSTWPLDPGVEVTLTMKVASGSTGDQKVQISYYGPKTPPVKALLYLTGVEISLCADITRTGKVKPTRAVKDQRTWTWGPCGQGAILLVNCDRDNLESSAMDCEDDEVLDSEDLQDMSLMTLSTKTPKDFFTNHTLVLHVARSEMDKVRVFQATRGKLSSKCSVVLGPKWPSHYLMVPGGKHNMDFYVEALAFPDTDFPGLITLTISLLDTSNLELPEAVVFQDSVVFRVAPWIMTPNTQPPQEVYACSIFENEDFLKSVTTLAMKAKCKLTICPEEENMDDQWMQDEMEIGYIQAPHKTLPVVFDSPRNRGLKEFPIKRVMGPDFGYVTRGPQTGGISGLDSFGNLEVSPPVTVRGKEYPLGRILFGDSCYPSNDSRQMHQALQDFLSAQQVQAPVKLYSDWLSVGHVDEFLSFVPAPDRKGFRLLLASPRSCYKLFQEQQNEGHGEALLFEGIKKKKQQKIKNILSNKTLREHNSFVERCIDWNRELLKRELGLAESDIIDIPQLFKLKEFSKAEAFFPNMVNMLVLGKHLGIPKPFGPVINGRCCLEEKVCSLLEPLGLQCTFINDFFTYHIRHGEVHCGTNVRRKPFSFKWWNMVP
Assay: RFMS Human PAD4 Functional Assay 1
Conditions: RFMS assay 1; 5 nM hPAD4, 250 μM BAEE substrate, 50 μM calcium, 37° C.
pIC50: −log10 of the molar value.
METRIC: pIC50

{"columns": ["COMPOUND", "METRIC", "READOUT NUMBER"],
 "data": [
  ["Cc1c(-c2cc3ccc(-c4cccc(O)c4F)nc3n2CC2CC2)nn2cc(C(=O)N3C[C@H](N)C[C@@H](F)C3)ccc12 [Example 86]", "pIC50", 6.66],
  ["Cc1c(-c2cc3ccc(-c4ccccc4N4CCNC4=O)nc3n2CC2CC2)nn2cc(C(=O)N3CC4CCC3[C@@H]4N)cc(F)c12 (stereo partly drawn) [Example 257]", "pIC50", 7.22],
  ["Cc1c(-c2cc3ccc(-c4cccc(O)c4F)cc3n2CC2CC2)oc2cc(C(=O)N3C[C@H](N)C[C@@H](F)C3)ccc12 [Example 198]", "pIC50", 5.49]
]}

----------
Target: human PAD4 (hPAD4) (Homo sapiens (Human))
Experiment: RFMS Human PAD4 Functional Assay 1
Format: biochemical
Conditions: RFMS assay 1; 5 nM hPAD4, 250 μM BAEE substrate, 50 μM calcium, 37° C.
METRIC: IC50

{"columns": ["MOLECULE", "METRIC", "RESULT"],
 "data": [
  ["COc1cc(C(=O)N2C[C@H](N)C[C@@H](F)C2)cc2sc(-c3cc4ccc(-c5ccc6c(c5)CNC6=O)cc4n3CC3CC3)c(C)c12", "IC50", "164 nM"],
  ["Cc1c(-c2cc3ccc(-c4cccc(O)c4F)nc3n2CC2CC2)nn2cc(C(=O)N3CCC[C@@H](N)C3)ccc12", "IC50", "40 nM"],
  ["COc1cc(C(=O)N2CC3CCC2[C@@H]3N)cc2oc(-c3cc4ccc(-c5ccc(C(N)=O)c(Cl)c5)cc4n3CC3CC3)c(C)c12 (stereo partly drawn)", "IC50", "628 nM"],
  ["Cc1c(-c2cc3ccc(C(C)(O)C(F)(F)F)nc3n2CC2CC2)nn2cc(C(=O)N3C[C@H](N)C[C@@H](F)C3)ccc12 (single isomer, unassigned) [Example 107]", "IC50", "240 nM"],
  ["Cc1c(-c2cc3ccc(C(C)(O)C(F)(F)F)nc3n2CC2CC2)nn2cc(C(=O)N3CC4CCC3[C@@H]4N)ccc12 (stereo partly drawn)", "IC50", "34 nM"],
  ["COC(=O)N(C)C1CCN(c2ccc3cc(-c4nn5cc(C(=O)N6C[C@H](N)C[C@@H](F)C6)cc(OC)c5c4C)n(CC4CC4)c3c2)CC1", "IC50", "70 nM"],
  ["Cc1c(-c2cc3ccc(Cl)nc3n2CC2CC2)nn2cc(C(=O)N3CC4CCC3[C@@H]4N)cc(F)c12 (stereo partly drawn)", "IC50", "87 nM"],
  ["COc1cc(C(=O)N2CC3CCC2[C@@H]3N)cn2nc(-c3cc4ccc(-c5cccc(O)c5F)nc4n3CC3CC3)c(C)c12 (stereo partly drawn)", "IC50", "120 nM"],
  ["Cc1c(-c2cc3cc(F)cc(C4CCN(C(=O)C5CC(O)C5)CC4)c3n2CC2CC2)nn2cc(C(=O)N3C[C@H](N)C[C@@H](F)C3)ccc12 (mixture of isomers)", "IC50", "20 nM"],
  ["Cc1c(-c2ccc3cc(-c4nn5cc(C(=O)N6CCC[C@@H](N)C6)ccc5c4C)n(CC4CC4)c3c2)cc(F)c2[nH]c(=O)ccc12", "IC50", "60 nM"],
  ["COc1cc(C(=O)N2C[C@H](N)C[C@@H](F)C2)cn2nc(-c3cc4cc(F)cc(C5CCN(C(C)=O)CC5)c4n3CC3CC3)c(C)c12", "IC50", "60 nM"],
  ["Cc1c(-c2cc3ccc(-c4ccc(OC(F)F)c(F)c4)nc3n2CC2CC2)nn2cc(C(=O)N3CC4CCC3[C@@H]4N)cc(F)c12 (stereo partly drawn)", "IC50", "1480 nM"]
]}

----------
pIC50 values by entry
Target: UniProtKB Q9UM07
Experiment: RFMS Human PAD4 Functional Assay 1
Format: biochemical
Settings: RFMS assay 1; 5 nM hPAD4, 250 μM BAEE substrate, 50 μM calcium, 37° C.
pIC50: −log10 of the molar value.

{"columns": ["COMPOUND", "pIC50"],
 "data": [
  ["Cc1c(-c2cc3cccc(OCCn4cncn4)c3n2CC2CC2)nn2cc(C(=O)N3CCC[C@@H](N)C3)ccc12", 7.22],
  ["COc1cc(C(=O)N2CCC[C@@H](N)C2)cn2nc(-c3cc4ccc(-c5cc(F)c6[nH]c(=O)ccc6c5C)cc4n3CC3CC3)c(C)c12", 7.15],
  ["Cc1c(-c2cc3ccccc3n2CC2CC2)oc2cc(C(=O)N3CC4CCC3[C@@H]4N)ccc12 (stereo partly drawn)", 6.64],
  ["COc1cc(C(=O)N2CCC[C@@H](N)C2)cn2nc(-c3cc4cccc(OCC5CNC(=O)C5)c4n3CC3CC3)c(C)c12 (single isomer, unassigned) [Example 564]", 7.40],
  ["COc1cc(C(=O)N2C[C@H](N)C[C@@H](F)C2)cn2nc(-c3cc4ccnc(OCC5CNC(=O)C5)c4n3CC3CC3)c(C)c12 (single isomer, unassigned; isomer 1) [Example 601]", 7.52],
  ["Cc1c(-c2cc3cccc(C4CCN(C(=O)CO)CC4)c3n2CC2CC2)nn2cc(C(=O)N3CCC[C@@H](N)C3)ccc12", 7.52],
  ["COc1cc(C(=O)N2CCC[C@@H](N)C2)cn2nc(-c3cc4cccc(C5CCN(C(=O)C6CCCCO6)CC5)c4n3CC3CC3)c(C)c12 (single isomer, unassigned) [Example 386]", 7.10],
  ["Cc1c(-c2cc3cccc(C4CCN(C(=O)CCO)CC4)c3n2CC2CC2)nn2cc(C(=O)N3C[C@H](N)C[C@@H](F)C3)ccc12", 7.10],
  ["Cc1c(-c2cc3cccc(OCC4CNC(=O)C4)c3n2CC2CC2)nn2cc(C(=O)N3C[C@H](N)C[C@@H](F)C3)cc(F)c12 (single isomer, unassigned) [Example 572]", 7.10],
  ["Cc1c(-c2cc3cccc(OCC4CC(=O)N(C)C4)c3n2CC2CC2)nn2cc(C(=O)N3C[C@H](N)C[C@@H](F)C3)ccc12 (single isomer, unassigned) [Example 579]", 6.62],
  ["COc1cc(C(=O)N2C[C@H](N)C[C@@H](F)C2)cn2nc(-c3cc4ccc(N5CCC(C(=O)N(C)C)CC5)cc4n3CC3CC3)c(C)c12", 7.05],
  ["Cc1cc(-c2ccc3cc(-c4nn5cc(C(=O)N6CC7CCC6[C@@H]7N)ccc5c4C)n(CC4CC4)c3c2)ccc1C(N)=O (stereo partly drawn)", 6.92]
]}
